Tested on: RXF-631 renal
Assay: NCI tumour cell line growth inhibition, 48 h
Exercise: state measured TGI for each of the compounds provided.
Please give a number only; it is taken to be in µM.

Exercise: Identify measured TGI associated with Cc1c[nH]c2c1C13CC1CN(C(=O)c1cc4cc(NC(=O)c5cc6ccccc6o5)ccc4[nH]1)C3=CC2=O (centres undefined)
Key: 0.0139

Exercise: Identify measured TGI associated with CCC1C(C)c2c([nH]c3ccccc23)C2C(=O)N(c3ccccc3)C(=O)C21 (centres undefined)
Key: 26.3

Exercise: Identify measured TGI associated with COc1cc(C2C3=C(CCC3=O)Oc3cc4c(cc32)OCO4)cc(OC)c1OC (centres undefined)
Key: 78.3

Exercise: Identify measured TGI associated with `Cc1cc(C)cc(-n2c3nc(=O)n(C)c(=O)c-3nc3ccccc32)c1`
Key: 80.3
